System: HL-60(TB) leukemia
Experiment: NCI-60 one-dose screen, 48 h
Conditions: 10 µM unless noted
Compounds without any hit were thinned out: in the full panel of roughly 83,000, 20% have a hit. The source made the active and inactive calls. How the source made its calls: active means growth percent below 10; inactive means the rest.
Permitted responses: 1.0 for active, 0.0 for inactive

Worked cases, answers included:
{"compound": "Oc1ccccc1C=NCCN=Cc1ccccc1O", "category_label": 0.0}
{"compound": "N[C@@H](CCC(=O)CCl)C(=O)O", "category_label": 0.0}
{"compound": "Nc1ccc2c(c1)Cc1cc(N)ccc1-2", "category_label": 0.0}
{"compound": "CCC(=O)C(CC(C)[N+](C)(C)C)(c1ccccc1)c1ccccc1 (stereo not given)", "category_label": 0.0}
{"compound": "CC/C(=C(\\c1ccc(OCCN2CCOCC2)cc1)c1ccc(OC(=O)Cc2ccccc2)cc1)c1ccc(Cl)cc1", "category_label": 0.0}
{"compound": "C[C@]12CCc3nc(-c4ccc(O)c(O)c4)sc3C1=CC[C@@H]1[C@@H]2CC[C@]2(C)C(=O)CC[C@@H]12", "category_label": 0.0}

Query compound follows.
// outcome(item) with item = "Cc1ccc(P(=O)(O)O)cc1"
0.0

The values you see were collected from PubChem BioAssay (NCI).
